Recorded values, source PubChem BioAssay (NCI).

- Test system: OVCAR-5 ovarian
- assay-overview: NCI tumour cell line growth inhibition, 48 h
Consider the following compounds and their measured TGI readings.

O=C(/C=C/c1c(O)ccc2ccccc12)c1ccccc1Cl = > 100 µM
COc1cc(/C=C/c2ccc(/C=C/c3cc(OC)c(OC)c(OC)c3)cc2)cc(OC)c1OC = > 100 µM

Query: Record request: TGI value, item O=C(CSc1nccc(=O)[nH]1)c1ccccc1
Response: > 100 µM

###

The following compounds are shown together with reported TGI values.
- System: SK-OV-3 ovarian
- assay-overview: NCI tumour cell line growth inhibition, 48 h

// below: answered compounds
C/C=C(\C)C(=O)O[C@H]1C=CC(=O)O[C@H]1CC[C@H](O)[C@H](C)O = 31 µM
COc1ccc(NC(=S)N=Nc2c(O)[nH]c3ccccc23)cc1 = > 68.8 µM
CN(C)C(=O)Nc1c([N+](=O)[O-])cc(C(F)(F)F)cc1[N+](=O)[O-] = > 100 µM
CN(CC(=O)O)S(=O)(=O)c1ccc(F)cc1 = > 100 µM
Nc1cc(N)c2nc(-c3ccccc3)c(Sc3ccc(Cl)c(Cl)c3)nc2c1 = 39.4 µM
Cc1cc2c(c(C)c1O)C(C)(C)CN2C(=O)C(C)(C)C = > 100 µM

Query: What does the data say about its TGI? Entry: NC(=O)c1c2c(n3ccccc13)C(=O)c1ccccc1C2=O
Response: > 100 µM

Query: # iterate: CCOc1ccc2nc(S/C(=C/C=C(C#N)C#N)c3ccc(Cl)cc3)sc2c1
Response: 15.3 µM

Query: Okay, and Cc1c(Cl)ccc2c1NC(=O)C2(O)CC(=O)c1ccc2ccccc2c1 (centres undefined) ?
Response: > 100 µM

Query: Can you handle COP1(=O)OCc2cnccc2O1 (centres undefined) next?
Response: > 100 µM

Query: Try CC1=CC(=O)C(=C(C)C)CC1 next.
Response: > 100 µM

Query: Try this compound next: OCC#Cc1ccccc1C#CCCCCCCC#Cc1ccccc1C#CCO
Response: 30.5 µM

Query: # repeat for O=C(/C=C/c1c(O)ccc2ccccc12)c1ccccc1Cl
Response: > 100 µM

Query: Same question, N#Cc1c2nc3ccccc3nc2n2ccccc12 this time
Response: > 100 µM

###

- System: TK-10 renal
- assay-overview: NCI tumour cell line growth inhibition, 48 h
The following compounds are listed with their measured TGI values.

CCc1nnc(CC)n1-n1c(Cc2ccccc2)n[nH]c1=O = > 100 µM
O=c1cc(-c2ccccc2)[nH]c2ccc(N3CCCCC3)cc12 = > 100 µM
CC(=O)N1N=C(c2cc(C)ccc2O)CC1c1cccc(Cl)c1 (stereo not given) = 68.7 µM
COS(=O)(=O)OCCC(NC(=O)OCc1ccccc1)C(=O)OCc1ccccc1 (stereo not given) = > 100 µM

Query: // query TGI value for entry CC1C2C=CC1C(c1c3ccc(=O)c(O)c-3oc3c(O)c(O)ccc13)C2C(=O)O (stereo not given)
Response: > 100 µM

###

- Test system: NCI-H460 lung
- assay-overview: NCI tumour cell line growth inhibition, 48 h
readout-kind: TGI

Below are worked cases with known answers.
CCOC(=O)c1nc2cc(C(F)(F)F)ccc2nc1Nc1ccc(OC)c(OC)c1 = > 100 µM
CCc1c2c(nc3ccc(OC(=O)NCc4ccc(B5OC(C)(C)C(C)(C)O5)cc4)cc13)-c1cc3c(c(=O)n1C2)COC(=O)[C@]3(O)CC = 0.343 µM

Query: If you can, please state the reported TGI value of CN(CC(=O)O)S(=O)(=O)c1ccc(F)cc1 .
Response: > 100 µM

###

- Test system: SK-MEL-28 melanoma
- assay-overview: NCI tumour cell line growth inhibition, 48 h
readout-kind: TGI

Consider the reported TGI for these compounds:
COC1=CC(=C(C#N)C(=Nc2ccccc2)SC)C=C(OC)C1=O = > 100 µM
CC(C)c1cccc(C(C)C)c1NC(=S)N=Nc1cc(C(C)(C)C)c(O)c(C(C)(C)C)c1 = 95.7 µM
Cc1c(C(=O)O)nc(/C=C/C(=O)O)[nH]c1=O = > 100 µM
CC(C)(OCc1ccccc1)c1ccccc1P(c1ccccc1)c1ccccc1 = > 100 µM
CCCN1C(=O)/C(=C/c2cccc(O)c2)SC1=Nc1ccc(OC)cc1 = 20.2 µM
O=C(Nc1ccccc1Cl)c1cc(S(=O)(=O)Nc2n[nH]c(=O)n2-c2ccccc2)c(S)cc1Cl = > 100 µM
S=c1[nH]n2c(Cc3ccccc3)nnc2s1 = > 100 µM

The record that follows has no TGI shown yet.
Query: Please state recorded TGI (tested on SK-MEL-28 melanoma) of O=C1C(=C/C=C2/SC(c3ccccc3)(c3ccccc3)c3ccccc32)C(=O)c2ccccc21
Response: > 100 µM

###

- System: OVCAR-5 ovarian
- assay-overview: NCI tumour cell line growth inhibition, 48 h
Listed here are compounds together with their documented GI50.

Look over these answered cases.
COc1ccc(C(=O)n2nc(/C=C/c3ccc(O)c(OC)c3)cc2/C=C/c2ccc(O)c(OC)c2)cc1 = 2610 nM
CCN(CC)CCOc1nc2c3ccc(Cl)cc3nn2c2ccccc12 = 2670 nM
Cc1cc(C)c(C#N)c(SCC(=O)c2sc3c(C#N)c(C)cc(C)[n+]3c2[O-])n1 = 607 nM

Let us move to another entry and its GI50.
Query: Entry [Co+2].[O-]c1ccccc1C=NCc1ccccc1.[O-]c1ccccc1C=NCc1ccccc1 has what GI50?
Response: 62700 nM

###

- System: NCI-H522 lung
- assay-overview: NCI tumour cell line growth inhibition, 48 h
Items are presented alongside their recorded TGI.

Answered cases to consult:
C=C1C[C@@H](O)[C@@H](Br)C(C)(C)[C@@]12C=CC(O)(CBr)CC2 (stereo partly drawn) = > 100 µM
O=C(O)c1c(-c2ccccc2)c(=O)[nH]c2ccccc12 = > 100 µM

Now take the following compound into account.
Query: What measured TGI is associated with O=S(=O)(O)c1cc(N=Nc2c(O)ccc3ccccc23)c2c(S(=O)(=O)O)cccc2c1 on NCI-H522 lung?
Response: > 100 µM

###

- System: SF-539 CNS
- assay-overview: NCI tumour cell line growth inhibition, 48 h
Where a SMILES comes first, the peptide text is derived from it. [ ]: non-standard residue; d: D form. The star is where a group is joined. Phe(4-NO2) = N[CH](Cc1ccc([N+](=O)[O-])cc1)C(=O)O; Boc = CC(C)(C)OC(=O)*; OtBu = CC(C)(C)O*
readout-kind: TGI

Recorded TGI, per entry:
CCC(=O)O[C@H]1CC[C@H]2[C@@H]3CCC4=CC(=O)C=C[C@]4(O)[C@H]3CC[C@]12C = > 100 µM
Nc1cc(N)c2nc(-c3ccccc3)c(Sc3ccc(Cl)c(Cl)c3)nc2c1 = 41.8 µM
CNN1C(=O)c2c(N)c(C#N)c(-c3ccccc3)c(-c3ccccc3)c2C1=O = > 100 µM
O=S(=O)(O)c1cc(N=Nc2c(O)ccc3ccccc23)c2c(S(=O)(=O)O)cccc2c1 = > 100 µM
Cc1ncc(CO)c(C=NCCCCCCN=Cc2c(CO)cnc(C)c2[O-])c1[O-].[Cu+2] = > 100 µM
CC1CC(C)CN(S(=O)(=O)c2cc(Cl)c(Oc3ccc([N+](=O)[O-])cc3Cl)c(Cl)c2)C1 (stereo not drawn) = > 100 µM
CCCc1cc2c(cc1O)CC[C@@H]1[C@@H]2CC[C@]2(C)[C@@H](O)CC[C@@H]12 = 24.4 µM
CCOc1ccc(NC(=O)C(=O)C2C(=O)Nc3ccccc3S2=O)cc1 (stereo not drawn) = > 100 µM

Query: Tell me the measured TGI of COc1ccc2nccc(NCCCN3CCN(CCCNc4ccnc5ccc(OC)cc45)CC3)c2c1 , please.
Response: 0.681 µM

Query: Another molecule to check: CC1CC2=C(C1)C(C1(C)C(=O)CC3C(C1=O)C3(C)C)C(C)C2=O (stereo not drawn)
Response: > 100 µM

Query: Same again, this time with CC(=O)NC(CCC(=O)OC(C)(C)C)C(=O)NC(CCC(=O)OC(C)(C)C)C(=O)NC(Cc1ccc([N+](=O)[O-])cc1)C(=O)NC(CCCCNC(=O)OC(C)(C)C)C(=O)NC(CCCCNC(=O)OC(C)(C)C)C(=O)NCC(=O)O (stereo not drawn) (Ac-E(OtBu)E(OtBu)[Phe(4-NO2)]K(Boc)K(Boc)G-OH; configuration not given here)
Response: > 100 µM

Query: Another molecule: C=C(CN(C)C)C(=O)c1ccc(OC2OC(COC(C)=O)C(OC(C)=O)C(OC(C)=O)C2OC(C)=O)cc1 (stereo not drawn)
Response: 30.6 µM

Query: Consider next the molecule CC(C)=CCC/C(C)=C/CC/C(C)=C/CCN(C)CCO in the same way.
Response: 14.8 µM

###

- System: HCC-2998 colon
- assay-overview: NCI tumour cell line growth inhibition, 48 h
TGI values for the compounds below.
Please reply with the bare figure in µM and do not write the unit itself.

Examples with their reported TGI follow.
C/C=C(\C)C(=O)O[C@H]1C=CC(=O)O[C@H]1CC[C@H](O)[C@H](C)O = 26.3
COc1ccc2nc3c([N+](=O)[O-])ccc4c3c(c2c1)N(CCCN(C)C)C(=S)N4CCCN(C)C = 10.1
CC(=O)CC(=O)Nc1c(C)[c]([Hg][O]C(C)=O)c(C)[c]([Hg][O]C(C)=O)[c]1[Hg][O]C(C)=O = 32.6
COc1ccc2nccc(NCCCN3CCN(CCCNc4ccnc5ccc(OC)cc45)CC3)c2c1 = 2.13
CC(C)CCC[C@@H](C)[C@H]1CCC2C3=CCn4c(=O)ccc(=O)n4C3CC[C@@]21C (stereo not given in full) = 2.03

Query: Look up TGI: O=C1/C(=C/c2cccc([N+](=O)[O-])c2)N=C(c2ccccc2)N1c1nc2c(Cl)cc(Cl)cc2s1
Response: 61.9
